Biological target: UniProt:P49759
Sequence (P49759 whole entry): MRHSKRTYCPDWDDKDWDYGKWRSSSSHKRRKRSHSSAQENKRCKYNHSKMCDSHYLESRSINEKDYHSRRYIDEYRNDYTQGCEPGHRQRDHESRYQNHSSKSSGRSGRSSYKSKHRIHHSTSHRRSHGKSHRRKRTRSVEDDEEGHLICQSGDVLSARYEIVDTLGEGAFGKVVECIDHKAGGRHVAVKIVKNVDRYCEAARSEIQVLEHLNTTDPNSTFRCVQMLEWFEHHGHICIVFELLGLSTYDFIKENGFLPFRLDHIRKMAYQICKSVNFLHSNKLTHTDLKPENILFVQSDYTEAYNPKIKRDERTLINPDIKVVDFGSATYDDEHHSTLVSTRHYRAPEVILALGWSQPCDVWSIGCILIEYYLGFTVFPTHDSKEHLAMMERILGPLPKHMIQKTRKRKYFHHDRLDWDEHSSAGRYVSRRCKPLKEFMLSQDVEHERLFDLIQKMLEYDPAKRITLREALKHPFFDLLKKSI
Reported log10(IC50) values follow for various molecules
Base-10 log of IC50, unit nM.

Please review the entries below; each comes with its answer.
INPUT: Write down the reported log10(IC50) of CCOc1nn([C@@H](C)CO)c2c1/C=C/c1n[nH]c3cc(F)c(cc13)-c1cnn(C)c1O[C@@H](C)CN(CC)C2 , test system: UniProt:P49759.
OUTPUT: 0.52

INPUT: API: value(readout= log10(IC50), system= UniProt:P49759, query= Cc1nn(C)c2c1/C=C/c1n[nH]c3ccc(cc13)-c1cnn(C)c1OCCN(C)C2 )
OUTPUT: -1.00

INPUT: Param readout = log10(IC50); param system = UniProt:P49759; param query = C[C@H]1CN(C)Cc2c(c(OCC#N)nn2C)/C=C/c2n[nH]c3ccc(cc23)-c2cnn(C)c2O1 ; response: value
OUTPUT: -0.55

INPUT: Write down the reported log10(IC50) of Cc1c2c(nn1C)/C=C/c1n[nH]c3ccc(cc13)-c1cnn(C)c1O[C@@H](C)CN(C(C)C)C2 , test system: UniProt:P49759.
OUTPUT: -0.15

Next:
INPUT: Identify the measured log10(IC50) of CCN1Cc2nn(C)c(C)c2/C=C/c2n[nH]c3ccc(cc23)-c2cnn(C)c2O[C@@H](C)C1 for UniProt:P49759.
OUTPUT: -0.09

INPUT: Reported log10(IC50) for UniProt:P49759, given Cc1c2c(nn1C)OCCOCc1c(cnn1C)-c1ccc3[nH]nc(c3c1)/C=C/2 ?
OUTPUT: -0.70

INPUT: Provide value of log10(IC50) for this record tested with UniProt:P49759: Cc1nn(C)c2c1/C=C/c1n[nH]c3ccc(cc13)-c1cnn(C)c1O[C@@H](C)CN(C)[C@H]2C (single isomer, unassigned)
OUTPUT: -0.68

----------
Biological target: EGFR L858R mutant (Homo sapiens (Human), UniProt P00533, L858R)
Sequence (P00533 25-1210 L858R): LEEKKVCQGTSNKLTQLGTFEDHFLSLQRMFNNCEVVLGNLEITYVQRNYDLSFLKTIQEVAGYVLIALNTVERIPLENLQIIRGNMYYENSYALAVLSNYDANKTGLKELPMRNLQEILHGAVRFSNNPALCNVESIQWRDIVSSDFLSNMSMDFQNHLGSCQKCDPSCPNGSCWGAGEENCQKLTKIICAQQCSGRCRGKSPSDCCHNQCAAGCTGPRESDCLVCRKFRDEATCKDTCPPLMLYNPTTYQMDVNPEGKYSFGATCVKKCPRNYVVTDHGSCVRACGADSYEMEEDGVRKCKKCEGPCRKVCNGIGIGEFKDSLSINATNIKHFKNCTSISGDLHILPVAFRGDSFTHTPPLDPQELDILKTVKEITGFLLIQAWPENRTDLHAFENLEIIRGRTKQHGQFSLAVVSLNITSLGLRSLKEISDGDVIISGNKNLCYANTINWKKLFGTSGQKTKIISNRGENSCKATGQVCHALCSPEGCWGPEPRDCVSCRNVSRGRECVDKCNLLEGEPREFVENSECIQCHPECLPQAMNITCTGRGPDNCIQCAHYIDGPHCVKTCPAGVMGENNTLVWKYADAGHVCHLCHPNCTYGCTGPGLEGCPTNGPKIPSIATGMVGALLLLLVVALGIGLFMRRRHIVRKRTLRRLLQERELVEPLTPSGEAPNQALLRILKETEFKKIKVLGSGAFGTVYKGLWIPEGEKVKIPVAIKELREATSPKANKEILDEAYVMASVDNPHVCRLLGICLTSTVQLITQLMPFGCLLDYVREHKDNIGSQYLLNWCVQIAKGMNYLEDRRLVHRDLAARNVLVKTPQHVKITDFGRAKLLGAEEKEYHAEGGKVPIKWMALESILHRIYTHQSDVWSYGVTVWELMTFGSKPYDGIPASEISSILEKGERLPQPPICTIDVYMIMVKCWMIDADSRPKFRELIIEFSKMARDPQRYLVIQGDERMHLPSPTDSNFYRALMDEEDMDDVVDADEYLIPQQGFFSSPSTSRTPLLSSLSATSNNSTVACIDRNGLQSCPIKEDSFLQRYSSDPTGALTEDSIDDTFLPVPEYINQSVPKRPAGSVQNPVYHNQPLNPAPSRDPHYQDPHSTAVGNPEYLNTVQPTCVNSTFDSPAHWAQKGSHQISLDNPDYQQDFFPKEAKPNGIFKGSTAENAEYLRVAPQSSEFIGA
Assay: HotSpot radiometric kinase assay, EGFR L858R mutant
Details: 10 μM ATP
# key: entry, value: IC50
Field: numeric (nM). Do not append units.

INPUT: Requested read-out: IC50. Entry: CC(C)Oc1nn(CCO)c2c1/C=C/c1n[nH]c3ccc(cc13)-c1cnn(C)c1O[C@@H](C)CN(C)C2 [Example 147]
OUTPUT: 0.44

INPUT: I am curious: what IC50 value has been reported for Cc1c2c(nn1C)OCCCOc1c(cnn1C)-c1ccc3[nH]nc(c3c1)/C=C/2 [Ex. 9] ?
OUTPUT: 349

INPUT: For the compound shown here, Cc1c2c(nn1[C@H]1C[C@@H](N(C)CCN(C)C)C1)OCCCOc1c(cnn1C)-c1ccc3[nH]nc(c3c1)/C=C/2 [Example 102] , give the reported IC50.
OUTPUT: 25.4

INPUT: Give its IC50 value. Item: CCN1Cc2c(c(OC(C)C)nn2CC(C)=O)/C=C/c2n[nH]c3ccc(cc23)-c2cnn(C)c2O[C@@H](C)C1 [Example 263]
OUTPUT: 3.97

INPUT: # IC50 lookup, item COC(C)(C)c1ccc2c(c1)O[C@@H]1CCN(CCOc3c(cnn3C)-c3ccc4[nH]nc(c4c3)/C=C/2)C1=O [Example 115]
OUTPUT: 37.3

INPUT: Form field: reported IC50 of CCc1nn(C)c2c1/C=C/c1n[nH]c3ccc(cc13)-c1cnn(C)c1O[C@@H](C)CCO2 [Ex. 37]
OUTPUT: 41.8

Continuing:
INPUT: Quick check: IC50 of C[C@H]1CN(C)Cc2c(c(OC3CC(S(C)(=O)=O)C3)nn2C)/C=C/c2n[nH]c3ccc(cc23)-c2cnn(C)c2O1 (some centres unmarked) [Example 187] ?
OUTPUT: 6.88

INPUT: # lookup: IC50 of C[C@H]1CN(C)Cc2c(c(OCC#N)nn2C)/C=C/c2n[nH]c3ccc(cc23)-c2cnn(C)c2O1 [Example 163]
OUTPUT: 8.2

INPUT: Entry Cc1nn([C@H]2COC[C@@H]2O)c2c1/C=C/c1n[nH]c3ccc(cc13)-c1cnn(C)c1OCCCO2 (single isomer, unassigned) [Example 76] : reported IC50 = ?
OUTPUT: 156

INPUT: Consider the compound shown here: CCOc1nn(CCO)c2c1/C=C/c1n[nH]c3ccc(cc13)-c1cnn(C)c1O[C@H]1CN(C)C[C@@H]1N(C)C2 (single isomer, unassigned) [Ex. 270] What is its recorded IC50?
OUTPUT: 161

INPUT: If you can, please state the reported IC50 value of Cc1c2c(nn1CCN1CCCC1)CN(C)C[C@@H](C)Oc1c(cnn1C)-c1ccc3[nH]nc(c3c1)/C=C/2 [Example 121] .
OUTPUT: 94.1

INPUT: Would you mind telling me what IC50 value was observed for C[C@H]1CN(C)Cc2c(c(OC3CCNCC3)nn2C)/C=C/c2n[nH]c3ccc(cc23)-c2cnn(C)c2O1 [Example 136] ?
OUTPUT: 14.6

----------
Measured IC50 on UniProtKB P00533 follows.

Examples with answers:
INPUT: Quick check: IC50 of Cc1c2c(nn1CCN1CCOCC1)CN(C)C[C@H](C)Oc1c(cnn1C)-c1ccc3[nH]nc(c3c1)/C=C/2 [Example 93] ?
OUTPUT: 69.2 nM

INPUT: Please look up its IC50: Cn1ncc2c1OCCN1CC[C@H](C1)Oc1ccccc1/C=C/c1n[nH]c3ccc-2cc13 [Example 170]
OUTPUT: 908 nM

INPUT: I have this molecule here, C[C@H](C#N)Oc1nn(CCO)c2c1/C=C/c1n[nH]c3cc(F)c(cc13)-c1cnn(C)c1O[C@@H](C)CN(C)C2 [Ex. 268] , and I need its recorded IC50.
OUTPUT: 7.91 nM

INPUT: Bench note: what IC50 did Cc1nn(C)c2c1/C=C/c1n[nH]c3ccc(cc13)-c1cnn(C)c1OCCN(C)C(=O)CO2 [Example 63] show?
OUTPUT: 782 nM

INPUT: Any idea what its IC50 is? The molecule is CCOc1nn(CCO)c2c1/C=C/c1n[nH]c3ccc(cc13)-c1c(C)nn(C)c1O[C@H](C)CN(C1CC1)C2 [Example 204]
OUTPUT: 5.49 nM

INPUT: Name the reported IC50 value associated with the molecule C[C@H]1CN(C)Cc2c(c(OCC(F)(F)F)nn2C)/C=C/c2n[nH]c3ccc(cc23)-c2cnn(C)c2O1 [Example 162]
OUTPUT: 238 nM

Next molecule, please.
INPUT: Give the measured IC50 of Cc1nn(C)c2c1-c1ccc3[nH]nc(c3c1)/C=C/c1c(OC(C)C)nn(CCO)c1CN(C(C)C)C[C@@H](C)O2 [Example 202] .
OUTPUT: 179 nM

----------
Catalogue of compounds with associated IC50
Target: EGFR L858R mutant (Homo sapiens (Human), UniProt P00533, L858R)
Assay: HotSpot radiometric kinase assay, EGFR L858R mutant
Conditions: 10 μM ATP

INPUT: Item CCN1Cc2c(c(OC(C)C)nn2[C@@H](C)CO)/C=C/c2n[nH]c3cc(F)c(cc23)-c2cnn(C)c2O[C@@H](C)C1 has what recorded IC50?
OUTPUT: 4.73 nM

INPUT: Need IC50 of Cc1nn(CCO)c2c1/C=C/c1n[nH]c3cc(Cl)c(cc13)-c1cnn(C)c1O[C@@H](C)CN(C)C2 , thanks.
OUTPUT: 11.9 nM

INPUT: Given C[C@H]1CN(C)Cc2c(c(OC3CCN(S(C)(=O)=O)CC3)nn2CCO)/C=C/c2n[nH]c3ccc(cc23)-c2cnn(C)c2O1 , state its recorded IC50.
OUTPUT: 42.6 nM

INPUT: Consider the compound Cc1nn(CCN2CCCC2)c2c1/C=C/c1n[nH]c3ccc(cc13)-c1cnn(C)c1OCCCO2 and give its measured IC50.
OUTPUT: 242 nM

INPUT: Looking for the measured IC50 of Cc1c2c(nn1C)CN(C)C[C@H](C)Oc1c(cnn1C)-c1ccc3[nH]nc(c3c1)/C=C/2 , can you help?
OUTPUT: 9.29 nM

INPUT: Record request: IC50 value, item CCOc1noc2c1/C=C/c1n[nH]c3ccc(cc13)-c1cnn(C)c1O[C@@H](C)CN(C)C2
OUTPUT: 61.5 nM

INPUT: If you can, please state the reported IC50 value of Cc1nn([C@H]2COCC[C@@H]2O)c2c1/C=C/c1n[nH]c3ccc(cc13)-c1cnn(C)c1OCCCO2 (racemic) .
OUTPUT: > 1000 nM

INPUT: Dear colleague, I am looking for the recorded IC50 of the following compound: Cc1nn([C@H]2C[C@@H](NCCN(C)C)C2)c2c1/C=C/c1n[nH]c3ccc(cc13)-c1cnn(C)c1OCCCO2
OUTPUT: 26.2 nM

INPUT: So what does the record say about IC50 for CCOc1nn([C@@H](C)CO)c2c1/C=C/c1n[nH]c3cc(F)c(cc13)-c1cnn(C)c1O[C@@H](C)CN(C)C2 ?
OUTPUT: 0.35 nM

INPUT: Tell me the measured IC50 of CN(C)Cc1ccc2c(c1)O[C@@H]1CCN(CCOc3c(cnn3C)-c3ccc4[nH]nc(c4c3)/C=C/2)C1=O , please.
OUTPUT: 9.99 nM

INPUT: What does the record list as IC50 for CSCn1ncc2c1O[C@@H](C)CN(C(C)C)Cc1c(c(C)nn1C)/C=C/c1n[nH]c3ccc-2cc13 ?
OUTPUT: 16.7 nM

INPUT: Quick one: IC50 of Cn1ncc2c1OCCN1CC[C@H](C1)Oc1ccccc1/C=C/c1n[nH]c3ccc-2cc13 ?
OUTPUT: 310 nM

INPUT: Which IC50 reading was recorded for the compound CC(C)Oc1nn(CCO)c2c1/C=C/c1n[nH]c3cc(F)c(cc13)-c1cnn(C)c1O[C@@H](C)CN(C)C2 ?
OUTPUT: 1.8 nM

INPUT: Look at this compound and give its reported IC50. CN1CCN(c2ccc3c(c2)OC2CCN(CCOc4c(cnn4C)-c4ccc5[nH]nc(c5c4)/C=C/3)C2=O)CC1 (stereo in doubt)
OUTPUT: 4.02 nM
